target: recombinant AlinOBP11 (Adelphocoris lineolatus, UniProt F4Y5P9); test: biochemical; format: binding; conditions: 2 μM protein, 2 μM 1-NPN, 50 mM Tris-HCl pH 7.4, competitor 2 to 30 μM, 25°C; read-out: IC50 (μM) AlinOBP11
Sequence (F4Y5P9 entry or part of it): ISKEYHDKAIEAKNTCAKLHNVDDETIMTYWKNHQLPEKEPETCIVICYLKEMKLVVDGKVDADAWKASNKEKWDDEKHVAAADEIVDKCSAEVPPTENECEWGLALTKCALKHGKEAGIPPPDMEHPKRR
List of IC50 values.

Sample answers from the record:
CCCC(=O)CC [3-Hexanone]: > 30 µM
C=C(C)[C@H]1CC=C(C)CC1 [Limonene]: > 30 µM

Note to self: IC50 recorded for CCCCCCC(C)=O [2-Octanone] was > 30 µM

Note to self: IC50 recorded for CCC/C=C/COC(=O)CCC [trans-2-hexenyl butyrate] was > 30 µM

Note to self: IC50 recorded for C=CC(C)(O)CCC=C(C)CCC=C(C)C (mixture of isomers) [Nerolidol] was 27.2 µM

Note to self: IC50 recorded for CCCCOC(=O)CCC [Butyl butyrate] was > 30 µM
